B1: HDV Ribozyme (parent)
chain: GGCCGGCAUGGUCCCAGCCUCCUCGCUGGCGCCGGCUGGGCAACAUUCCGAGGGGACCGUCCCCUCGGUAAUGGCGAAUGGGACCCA

Variants of: B1
Test: self-cleavage, relative activity (ratio to wild type); higher = more cleavage; co-transcriptional
Assign criterion met whenever self-cleavage does not fall below 0.2; assign criterion not met whenever it does.

sequence_data: GGCCGGCAUGGUCCCAGCCUCCUCGCUGGCGCCGGCGGGGCAACAUUCCGAGGGGACCGUCCCCUCGGUAAUGGGGAAUGGGACCCA [U37G C75G]
class_name: criterion not met
//
sequence_data: GGCCGGCAUGGUCCCAGCCUCGUCGCUGGCGCCGGCUGGGCAACAUUCCGAGGGGACCGUCACCUCGGUAAUGGCGAAUGGGACCCA [C22G C62A]
class_name: criterion not met

[ask] Item GGCCGGGAAGGUCCCAGCCUCCUCGCUGGCGCCGGCUGGGCAACAUUCCGAGGGGACCGUCCCCUCGGUAAUGGCGAAUGGGACCCA [C7G U9A] with self-cleavage of 0.2 or above?
[reply] criterion met

[ask] Item GGCCGGCAUGGUCCCAGCCUCCUCGCUGGCGCCGGCUGGGCAACAUUCCGAGGGGACCGACCCCUCGGUAACGGCGAAUGGGACCCA [U60A U72C] with self-cleavage of 0.2 or above?
[reply] criterion met

[ask] Item GGCCGGCAUGGUCCCAGCCUCCUCGCUGGCGCCGGCUGGGCAACAUUCGGUGGGGACCGUCCCCUCGGUAAUGGCGAAUGGGACCCA [C49G A51U] with self-cleavage of 0.2 or above?
[reply] criterion met

[ask] Item GGCCGGCAUGGUCCCAGCCUCCUCGCUGGCGCCGGCUGGGCAACAUUCCGAGGGGACCGUCCCCUCGGUAAUAGCGAAUGGGACCCA [G73A] with self-cleavage of 0.2 or above?
[reply] criterion met

[ask] Item GGCCGGCAUGGUCCCAGCUUCCUCGCUGGCGCCGGCUGGGCAACAUUCCGAGGGGACCGUCCCCUCGGUAAUGGCGAAUGGGACUCA [C19U C85U] with self-cleavage of 0.2 or above?
[reply] criterion met
